# targetDesc: cynomolgus monkey MuSK (cynomolgus monkey, UniProt A0A2K5USF6 24-487)
# Sequence (A0A2K5USF6 entry or part of it): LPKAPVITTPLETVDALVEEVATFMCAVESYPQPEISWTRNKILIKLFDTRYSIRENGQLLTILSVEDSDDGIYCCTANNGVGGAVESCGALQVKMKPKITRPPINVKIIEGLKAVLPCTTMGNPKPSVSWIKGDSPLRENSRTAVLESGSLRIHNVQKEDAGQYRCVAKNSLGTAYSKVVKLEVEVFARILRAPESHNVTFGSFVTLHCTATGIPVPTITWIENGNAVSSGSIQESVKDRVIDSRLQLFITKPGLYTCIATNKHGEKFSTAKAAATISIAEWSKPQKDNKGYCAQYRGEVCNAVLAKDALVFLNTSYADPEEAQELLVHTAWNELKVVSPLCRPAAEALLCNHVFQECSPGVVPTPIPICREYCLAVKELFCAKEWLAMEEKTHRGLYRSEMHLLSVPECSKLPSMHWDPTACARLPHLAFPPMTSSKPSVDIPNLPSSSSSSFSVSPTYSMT
# procedureText: Biacore, MuSK on chip (200RU), 66.7 nM mAb, dissociation pH 7.4
measurementLabel: R0 (RU)
Give the number; RU is assumed, so skip it.

Item: 3B2g2m1 (antibody, human IgG1, V domains shown, human IgG1-LALA backbone; produced in HEK293 cells; also called MuSK agonist antibody 3B2g2m1; MuSK-mAb 3B2g2m1) VH: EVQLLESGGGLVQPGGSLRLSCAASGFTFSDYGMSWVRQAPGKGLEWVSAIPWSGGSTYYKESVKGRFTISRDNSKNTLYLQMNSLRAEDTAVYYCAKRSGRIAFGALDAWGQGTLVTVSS VL: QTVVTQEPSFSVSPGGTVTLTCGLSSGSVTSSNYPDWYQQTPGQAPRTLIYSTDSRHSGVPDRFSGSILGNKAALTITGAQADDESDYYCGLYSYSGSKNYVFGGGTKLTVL | R0: 144

Item: 3B2 (antibody, V domains shown, human IgG1 with the LALA mutations (L234A, L235A); produced in HEK293 cells; also called 3B2 mAb; parental 3B2 Ab) VH: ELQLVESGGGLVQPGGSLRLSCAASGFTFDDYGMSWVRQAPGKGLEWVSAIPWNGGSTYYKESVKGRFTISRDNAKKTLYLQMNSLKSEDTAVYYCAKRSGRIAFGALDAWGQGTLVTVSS VL: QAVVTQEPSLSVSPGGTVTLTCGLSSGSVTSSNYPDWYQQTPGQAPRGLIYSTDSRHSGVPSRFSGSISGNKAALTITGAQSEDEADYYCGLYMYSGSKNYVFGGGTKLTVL | R0: 143

Item: 3B2g1m4 (antibody, human IgG1, V domains shown, human IgG1-LALA backbone; produced in HEK293 cells) VH: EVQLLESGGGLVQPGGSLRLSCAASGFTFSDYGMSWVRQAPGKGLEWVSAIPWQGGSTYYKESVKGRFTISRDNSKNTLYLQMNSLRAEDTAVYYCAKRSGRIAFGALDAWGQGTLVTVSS VL: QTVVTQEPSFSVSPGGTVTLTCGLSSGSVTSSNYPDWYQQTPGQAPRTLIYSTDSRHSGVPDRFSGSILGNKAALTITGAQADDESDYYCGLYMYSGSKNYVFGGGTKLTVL | R0: 140
